Test: background-corrected fluorescence of 3'-dye-labeled ssDNA relative to brightest sequence (3'-GCGCG) (fraction); higher = brighter dye fluorescence (less quenching)
Conditions: dye: Cy3 (3' terminal)
propertyMeasured: background-corrected fluorescence
One number for each entry.

TTTTTTGATGATGCTCAGCATTTTTTTTTTTTTTTCCAGT [TGACC]: 0.615
TTTTTTGATGCTGATGATGATTTTTTTTTTTTTTTCACCC [CCCAC]: 0.37
TTTTTTCAGCATGATCATCATTTTTTTTTTTTTTTGTCGG [GGCTG]: 0.666
TTTTTTGCTCATGATCATGCTTTTTTTTTTTTTTTAGCGA: 0.708
TTTTTTGATGCGCATGATGCTTTTTTTTTTTTTTTCATCA [ACTAC]: 0.483
TTTTTTCAGCATGATGCTGATTTTTTTTTTTTTTTGTCAC [CACTG]: 0.417

// each listed sequence needs a value for background-corrected fluorescence
1. TTTTTGCATCAGCATCATCATTTTTTTTTTTTTTTTGTGG [GGTGT]
2. TTTTTTCATGCTCATGATCATTTTTTTTTTTTTTTGAGCG [GCGAG]
3. TTTTTGCAGCATCATGCTGCTTTTTTTTTTTTTTTTTGAA [AAGTT]
4. TTTTTTGCTGATCATCATCATTTTTTTTTTTTTTTACGGG [GGGCA]

Given back:
1: 0.585; 2: 0.654; 3: 0.634; 4: 0.655

---

Assay: background-corrected fluorescence of 3'-dye-labeled ssDNA relative to brightest sequence (3'-GCGCG) (fraction); higher = brighter dye fluorescence (less quenching)
Conditions: dye: Cy3 (3' terminal)
propertyMeasured: background-corrected fluorescence
One number for each entry.

TTTTTTGAGCAGCATGATGATTTTTTTTTTTTTTTCTTCC [CCTTC]: 0.345

// each listed sequence needs a value for background-corrected fluorescence
1. TTTTTGCAGCATCATGCTCATTTTTTTTTTTTTTTTTGAG [GAGTT]
2. TTTTTTCATCATGATGATGATTTTTTTTTTTTTTTGGCCC [CCCGG]
3. TTTTTTCAGCAGCAGCATGATTTTTTTTTTTTTTTGTTTC [CTTTG]
4. TTTTTGCATGATGATGCTGCTTTTTTTTTTTTTTTTCCAA [AACCT]

Given back:
1: 0.542; 2: 0.387; 3: 0.409; 4: 0.536

// each listed sequence needs a value for background-corrected fluorescence
1. TTTTTTGATCATCATGATGCTTTTTTTTTTTTTTTCGGCA [ACGGC]
2. TTTTTTCATGCTGATCATGATTTTTTTTTTTTTTTGACGC [CGCAG]
3. TTTTTTGCGCATGCTGATCATTTTTTTTTTTTTTTATACG [GCATA]
4. TTTTTTCATGCTCATCAGCATTTTTTTTTTTTTTTGAGGT [TGGAG]
5. TTTTTTCATCAGCATGCTGATTTTTTTTTTTTTTTGGTAC [CATGG]

Given back:
[0.612, 0.577, 0.574, 0.708, 0.442]

---

Consider the following sequences; for each one, report its background-corrected fluorescence.
Experiment: background-corrected fluorescence of 3'-dye-labeled ssDNA relative to brightest sequence (3'-GCGCG) (fraction); higher = brighter dye fluorescence (less quenching)
Conditions: dye: Cy5 (3' terminal)
Answers are plain numbers.

TTTTTTCATCAGCATGCTGCTTTTTTTTTTTTTTTGGTAA [AATGG]: 0.458
TTTTTTGCTGCGCATGATGCTTTTTTTTTTTTTTTAATCA [ACTAA]: 0.382
TTTTTTGCTCAGCAGCATGATTTTTTTTTTTTTTTAGTTC [CTTGA]: 0.335

// each listed sequence needs a value for background-corrected fluorescence
1. TTTTTTCATGATCAGCAGCATTTTTTTTTTTTTTTGCGTT
2. TTTTTTGCTCATGATGATCATTTTTTTTTTTTTTTAGCCG [GCCGA]

Given back:
1. 0.422
2. 0.437

---

Test: background-corrected fluorescence of 3'-dye-labeled ssDNA relative to brightest sequence (3'-GCGCG) (fraction); higher = brighter dye fluorescence (less quenching)
Settings: dye: Cy3 (3' terminal)
propertyMeasured: background-corrected fluorescence
Numbers only.

TTTTTTGATGATGCGCATCATTTTTTTTTTTTTTTCCATG [GTACC]: 0.542
TTTTTTCATCAGCAGCATGCTTTTTTTTTTTTTTTGGTTA [ATTGG]: 0.53
TTTTTTGATGAGCATCATGATTTTTTTTTTTTTTTCCTGC [CGTCC]: 0.485
TTTTTTCATGCTCATGATGCTTTTTTTTTTTTTTTGAGCA [ACGAG]: 0.585

// each listed sequence needs a value for background-corrected fluorescence
1. TTTTTTCATCAGCATCATGCTTTTTTTTTTTTTTTGGTGA [AGTGG]
2. TTTTTGCATGATGCTGATGATTTTTTTTTTTTTTTTCACC [CCACT]
3. TTTTTGCAGCATCATGATCATTTTTTTTTTTTTTTTTGCG [GCGTT]
4. TTTTTTGCTGAGCATGATCATTTTTTTTTTTTTTTACTCG [GCTCA]
5. TTTTTTGAGCAGCATGCTGATTTTTTTTTTTTTTTCTTAC [CATTC]

Given back:
1: 0.627; 2: 0.382; 3: 0.559; 4: 0.571; 5: 0.404

Asked: Dear colleague, I am looking for the recorded background-corrected fluorescence of the following sequence: TTTTTTGATGCTCATGATCATTTTTTTTTTTTTTTCAGCG [GCGAC]
Given back: 0.622

---

Assay: background-corrected fluorescence of 3'-dye-labeled ssDNA relative to brightest sequence (3'-GCGCG) (fraction); higher = brighter dye fluorescence (less quenching)
Conditions: dye: Cy5 (3' terminal)
Consider the following sequences; for each one, report its background-corrected fluorescence.
One number for each entry.

The examples below pair each entry with its known result.
TTTTTGCAGCATGCTGCTGCTTTTTTTTTTTTTTTTTAAA [AAATT]: 0.487
TTTTTTGCTGCTGATCATGATTTTTTTTTTTTTTTAACGC [CGCAA]: 0.436
TTTTTTCATGAGCAGCAGCATTTTTTTTTTTTTTTGCTTT [TTTCG]: 0.384
TTTTTTCATGATCATGATGATTTTTTTTTTTTTTTGCGCC [CCGCG]: 0.4
TTTTTTGATCATCATGATGATTTTTTTTTTTTTTTCGGCC [CCGGC]: 0.364

// each listed sequence needs a value for background-corrected fluorescence
1. TTTTTTGATGAGCATGATCATTTTTTTTTTTTTTTCCTCG [GCTCC]
2. TTTTTTGCTCATGATGCTGATTTTTTTTTTTTTTTAGCAC [CACGA]
3. TTTTTTGAGCATCATGATCATTTTTTTTTTTTTTTCTGCG [GCGTC]
4. TTTTTGCATGATCATGATGCTTTTTTTTTTTTTTTTCGCA [ACGCT]

Given back:
0.393
0.328
0.483
0.434

Asked: Dear colleague, I am looking for the recorded background-corrected fluorescence of the following sequence: TTTTTTGAGCATCAGCATGCTTTTTTTTTTTTTTTCTGTA [ATGTC]
Given back: 0.429

---

Assay: background-corrected fluorescence of 3'-dye-labeled ssDNA relative to brightest sequence (3'-GCGCG) (fraction); higher = brighter dye fluorescence (less quenching)
Conditions: dye: Cy3 (3' terminal)
Classify by measured background-corrected fluorescence: true if it is equal to or exceeds 0.6, false if it is smaller.

TTTTTTGCTGCTCATGATCATTTTTTTTTTTTTTTAAGCG [GCGAA]: true
TTTTTGCATGCGCATGCTGATTTTTTTTTTTTTTTTATAC [CATAT]: false
TTTTTTGAGCATGAGCATGATTTTTTTTTTTTTTTCTCTC: false
TTTTTTCAGCAGCATCATCATTTTTTTTTTTTTTTGTTGG [GGTTG]: false

Asked: Confirm if background-corrected fluorescence reported for the sequence TTTTTTGCTCATGATGCTCATTTTTTTTTTTTTTTAGCAG [GACGA] is 0.6 or above.
Given back: false

Asked: Item: TTTTTTCATGAGCAGCAGCATTTTTTTTTTTTTTTGCTTT [TTTCG]
Given back: false

Asked: Item: TTTTTGCAGCATGCTGCTCATTTTTTTTTTTTTTTTTAAG [GAATT]
Given back: false

Asked: Item: TTTTTTGCTGCTGAGCAGCATTTTTTTTTTTTTTTAACTT [TTCAA]
Given back: false

Asked: Item: TTTTTTCAGCATGAGCATGATTTTTTTTTTTTTTTGTCTC [CTCTG]
Given back: false

Asked: Item: TTTTTTCATGATCAGCATCATTTTTTTTTTTTTTTGCGTG [GTGCG]
Given back: false

Asked: Item: TTTTTTCATGCGCATGCTGATTTTTTTTTTTTTTTGATAC [CATAG]
Given back: false
